Test: chemical genetic growth profiling, strain panel (AID 1159580);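 also: tested at 20 µM; growth read once vehicle control cultures reached saturation at 30 °C; 1 = growth at the plate median or of vehicle wells; lower values mean less growth of the strain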
Settings: S. cerevisiae deletion strains, growth OD, locus YNR052C, strain pop2, stronger effect = lower value
Screen size: about 5,500 compounds; about 2,000 (36%) were called active. Another 18% or so got no clear call; they are omitted. The list shows a part of the results.

molecule	normalized growth
CC1(C)C2CC[C@]3(C)C(C(=O)C=C4[C@@H]5C[C@@](C)(C(=O)O)CC[C@]5(C)CC[C@]43C)[C@@]2(C)CC[C@@H]1O (stereo not given in full)	0.955
CC1(O)/C=C/C=C(\CO)C2CC(C)(C)C2(O)CC1 (stereo not given)	0.998
C=CC(C)(C)c1c2c(c(O)c3c(=O)c4ccc(O)c(O)c4oc13)C=CC(C)(C)O2	0.93
Nc1nc2[nH]c(=O)c(=O)[nH]c2c(=O)[nH]1	1.02
CC1(C)C2CC[C@]3(C)C(C(=O)C=C4[C@H]5C[C@@](C)(C(=O)O)CC[C@]5(C)CC[C@]43C)[C@@]2(C)CC[C@@H]1O (stereo not given in full)	0.999

* * *

Assay: chemical genetic growth profiling, strain panel (AID 1159580)
Conditions: S. cerevisiae deletion strains, growth OD, locus YNL209W, strain ssb2, stronger effect = lower value
Screen size: about 5,500 compounds; about 2,000 (36%) were called active. Inconclusive results (about 18%) are left out. Some of the results follow.
readout-label: normalized growth

compound	quantitative-result
CC[C@H]1OC(=O)C[C@@H](O)[C@H](C)[C@@H](O[C@@H]2O[C@H](C)[C@@H](O[C@H]3C[C@@](C)(O)[C@@H](O)[C@H](C)O3)[C@H](N(C)C)[C@H]2O)[C@@H](CC=O)C[C@@H](C)C(=O)/C=C/C(C)=C/[C@@H]1CO[C@@H]1O[C@H](C)[C@@H](O)[C@@H](OC)[C@H]1OC	0.993
COc1cccc([C@]2(O)CCCC[C@H]2CN(C)C)c1	0.966
C[C@@H](N)CO	0.974
O=c1ccc2cc(O)c(O)cc2o1	1
O=C(/C=C/C=C/c1ccc2c(c1)OCO2)N1CCCCC1	0.949
CC(C)CC1C(=O)N2CCC[C@H]2C2(O)O[C@](NC(=O)C3C=C4c5cccc6[nH]c(Br)c(c56)C[C@H]4N(C)C3)(C(C)C)C(=O)N12 (stereo partly drawn)	0.989
O=c1ccc2ccccc2o1	0.978
CCCCCC(C)N (stereo not drawn)	1.03
COc1ccc(-c2coc3c(O)c(OC)ccc3c2=O)cc1	0.948
CC(=O)O[C@@](C)(CCC=C(C)C)C1CC=C(C)CC1 (stereo partly drawn)	0.984
O=C(O)c1ccccc1OP(=O)(O)O	1
NC(N)=Nc1nc(CSCCC(N)=NS(N)(=O)=O)cs1	0.993
CC[C@@H](CO)NCCN[C@@H](CC)CO	1.02

* * *

Test: chemical genetic growth profiling, strain panel (AID 1159580);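 also: tested at 20 µM; growth read once vehicle control cultures reached saturation at 30 °C; 1 = growth at the plate median or of vehicle wells; lower values mean less growth of the strain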
Settings: S. cerevisiae deletion strains, growth OD, locus YJL164C, strain tpk1, stronger effect = lower value
The campaign covered roughly 5,500 compounds. About 2,000 (36%) were called active. Not shown: some 18% with an inconclusive outcome. The list shows a part of the results.
readout-label: normalized growth

molecule	quantitative-result
CC(C)(C)CC(C)(C)c1ccc(OCCOCC[N+](C)(C)Cc2ccccc2)cc1	0.0649
CC(C)[N+](C)(CCOC(=O)C1c2ccccc2Oc2ccccc21)C(C)C	0.995
CC(C)=CCc1c(O)cc2oc(C)cc(=O)c2c1O	0.929
CCCCCCCC/C=C/CCCCCCCCOP(=O)([O-])OCC[N+](C)(C)C	0.0536
CC(=O)CC(=O)CCC(=O)O	1.01
C/C=C(/C(=C/C)c1ccc(O)cc1)c1ccc(O)cc1	0.972
C[N+](C)(C)CCOP(=O)([O-])OP(=O)(O)OC[C@H]1OC(n2ccc(N)nc2=O)[C@H](O)[C@@H]1O (some centres undefined)	1
CCC1(C)CC(=O)NC1=O (centres undefined)	0.974
C1CCc2nnnn2CC1	1
CN=C(NC#N)NCCSCc1nc[nH]c1C	0.992
CC[C@H]1OC(=O)C[C@@H](O)[C@H](C)[C@@H](O[C@@H]2O[C@H](C)[C@@H](O[C@H]3C[C@@](C)(O)[C@@H](O)[C@H](C)O3)[C@H](N(C)C)[C@H]2O)[C@@H](CC=O)C[C@@H](C)C(=O)/C=C/C(C)=C/[C@@H]1CO[C@@H]1O[C@H](C)[C@@H](O)[C@@H](OC)[C@H]1OC	0.998
CC(=O)OC1CC23CC24CCC(OC2OCC(O)C(O)C2O)C(C)(C)C4CCC3C2(C)CC3OC4(CC(C)C3C12C)OC(O)C1(C)OC41 (centres undefined)	0.972
CCCCCC(=O)O[C@]1(C(C)=O)CCC2C3CCC4=CC(=O)CC[C@]4(C)C3CC[C@@]21C (some centres undefined)	1.01
CC(C)[C@H](N)C(=O)OCCOCn1cnc2c(=O)[nH]c(N)nc21	0.995

* * *

The following molecules are shown together with reported normalized growth values.
Assay: chemical genetic growth profiling, strain panel (AID 1159580);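 also: tested at 20 µM; growth read once vehicle control cultures reached saturation at 30 °C; 1 = growth at the plate median or of vehicle wells; lower values mean less growth of the strain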
Details: S. cerevisiae deletion strains, growth OD, locus YBR136W, strain MEC1, stronger effect = lower value
About 2,000 (36%) of roughly 5,500 compounds were called active. About 18% were inconclusive and are not listed. The list shows a part of the results.

molecule	normalized growth
S=C(Nc1cc(-c2cccs2)[nH]n1)Nc1ccccc1Cl	0.934 (inactive)
Cc1oc2c(F)c(F)c(F)c(F)c2c1C(=O)ONC(N)c1ccc(OS(=O)(=O)N(C)C)cc1 (stereo unspecified)	0.958 (inactive)
COc1ccc(NC(=O)O/N=C(/N)c2ccc(Oc3c(Cl)cncc3Cl)cc2)cc1	0.982 (inactive)
NCCCN=c1ccc2c3c1c(O)c1c(O)ccc(=O)c1c3[nH]n2CCNCCO	0.97 (inactive)
CCC(C)c1ccccc1NC(=O)c1cc2cccc([N+](=O)[O-])c2[nH]1 (stereo unspecified)	0.923 (inactive)
N#C/C(=C\c1ccccc1Sc1ccc(Cl)cc1)S(=O)(=O)c1ccccn1	0.966 (inactive)
Cc1ccccc1C(=O)N1CCc2c([nH]c3ccccc23)C1C(F)(F)F (stereo unspecified)	0.968 (inactive)
Cc1cc(SCc2[nH]nc3oc(=O)cc(C)c23)c(Cl)cc1Cl	0.987 (inactive)
N#C/C(=N/Nc1ccccc1Cl)S(=O)(=O)c1ccc(Cl)cc1	0.968 (inactive)
CC1=CC(=O)C(CCOCCC2=CC(=O)C(C)=CC2=O)=CC1=O	0.982 (inactive)
O=C(Nc1c(Br)c(C2CC2)nn1-c1ccccc1)C(Cl)(Cl)Cl	0.923 (inactive)
O=C(Nc1cc(Cl)cc(Cl)c1)Nc1cc(-c2ccco2)[nH]n1	0.935 (inactive)
C=CC(=O)N1CCc2cc([N+](=O)[O-])ccc21	0.764 (active)
C/C(=N/NC(N)=S)c1ccc(Oc2c(Cl)cncc2Cl)cc1	0.986 (inactive)
CC(C)(C)C1=NN(c2nc3ccc(Cl)cc3s2)C(=O)C1	0.102 (active)
O=C(CCN1CCCCC1)c1ccc(-c2ccccc2)cc1	0.981 (inactive)

* * *

Assay: chemical genetic growth profiling, strain panel (AID 1159580);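 also: tested at 20 µM; growth read once vehicle control cultures reached saturation at 30 °C; 1 = growth at the plate median or of vehicle wells; lower values mean less growth of the strain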
Details: S. cerevisiae deletion strains, growth OD, locus YJR075W, strain HOC1, stronger effect = lower value
Among all 5,500 compounds or so, about 2,000 (36%) were called active. Roughly 18% stayed inconclusive and do not appear here. This is one part of the list.
readout-label: normalized growth

compound	readout-label	quantitative-result
CC(C)CC1C(=O)N2CCC[C@H]2C2(O)O[C@](NC(=O)C3C=C4c5cccc6[nH]c(Br)c(c56)C[C@H]4N(C)C3)(C(C)C)C(=O)N12 (some centres not stated)	normalized growth	0.992
NC(N)=Nc1nc(CSCCC(N)=NS(N)(=O)=O)cs1	normalized growth	1.01
CCCCCCCc1c(O)c2ccccc2[nH]c1=O	normalized growth	1
O=C1C[C@@H](c2ccc(O)cc2)Oc2cc(O)cc(O)c21	normalized growth	1.02
CO[C@H]1C[C@H](O[C@H]2[C@H](C)[C@@H](OC3O[C@H](C)C[C@H](N(C)C)[C@H]3O)[C@@H](C)C[C@]3(CO3)C(=O)[C@H](C)[C@@H](O)[C@@H](C)[C@@H](C)OC(=O)[C@@H]2C)O[C@@H](C)[C@@H]1O (some centres not stated)	normalized growth	1.01
O=c1[nH]c2cccnc2[nH]c1=O	normalized growth	0.969
CCc1cccc(C)c1N(C(=O)CCl)C(C)COC (configuration not stated)	normalized growth	1.01
CN(C)/C=C1\C(=O)c2ccccc2N(C)S1(=O)=O	normalized growth	0.949
CCc1nc(N)nc(N)c1-c1ccc(Cl)cc1	normalized growth	0.978
C=CC1=C(C(=O)O)N2C(=O)[C@@H](NC(=O)/C(=N/O)c3csc(N)n3)[C@H]2SC1	normalized growth	1.01
CCCC(=O)NCCc1c2n(c3ccc(OC)cc13)CCCc1ccccc1-2	normalized growth	0.995
CCOC(=O)COc1ccc2c(c1)OC(C)(C)CC2=O	normalized growth	0.974
CN1C(=O)CN=C(c2ccccc2)c2ccccc21	normalized growth	0.994
O=C1C[C@@H](c2ccccc2)Oc2cc(O)cc(O)c21	normalized growth	0.919
COc1ccc([C@@H]2CC(=O)c3c(O)cc(O)cc3O2)cc1O	normalized growth	1.03
COc1ccc(OC)c(C(=O)c2cc(OC)c(OC)c(OC)c2)c1	normalized growth	1.03
C[N+](C)(C)CCOP(=O)([O-])OP(=O)(O)OC[C@H]1OC(n2ccc(N)nc2=O)[C@H](O)[C@@H]1O (some centres not stated)	normalized growth	0.975
